Source: ChEMBL document CHEMBL1142844

Biological target: Apoptosis regulator Bcl-2 (Homo sapiens, UniProt P10415)
Sequence (P10415 whole entry): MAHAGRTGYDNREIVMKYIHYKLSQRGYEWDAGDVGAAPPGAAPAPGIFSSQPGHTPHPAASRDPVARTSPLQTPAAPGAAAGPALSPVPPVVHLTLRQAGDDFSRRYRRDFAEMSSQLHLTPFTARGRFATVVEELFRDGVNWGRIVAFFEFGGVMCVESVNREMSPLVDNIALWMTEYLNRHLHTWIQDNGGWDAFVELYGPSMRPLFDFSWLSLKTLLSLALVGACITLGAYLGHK
Test: Inhibition of BCL2 by fluorescence polarization based competitive binding assay
Conditions: read-out: IC50
Hi there, I'd appreciate the recorded IC50 for every entry that follows.
One number for each entry, in nM.

substance	system	IC50 (nM)
H-RNIARHLAQVGDSMDR-OH	Apoptosis regulator Bcl-2 (Homo sapiens, UniProt P10415)	22300

Give IC50 for all substances that follow.
1. H-NLWAAKKLSECLKRIGDELDSSFKGL-OH
2. H-NLWAAQRYGRELRRMSDEFEGSAKGL-OH

A:
1. 1330
2. 1360

----------
Hi there, I'd appreciate the recorded IC50 for every entry that follows.
Target: Apoptosis regulator Bcl-2 (Homo sapiens, UniProt P10415)
Assay: Inhibition of BCL2 by fluorescence polarization based competitive binding assay
Conditions: read-out: IC50
Returns: string containing the numeric result and its unit.

Field: example entries. Status: answers known.
substance	IC50
H-NLWAAQRYGRELRRMSDEFEGAFKGL-OH	800 nM
H-NRWAAQRYGRELRRMSDEFEGSFKGL-OH	490 nM
H-NLWAAQRYGRELRRMSDEFEG-OH	5600 nM

Give IC50 for all substances that follow.
1. H-PSSTMGQVGRQLAIIGDDINRRYDSE-OH
2. H-NLAAAQRYGRELRRMSDEFEGSFKGL-OH
3. H-QRYGRELRRMSDEFEGSFKGL-OH
4. H-NLWAAGQVGRQLAIIGDDINRSFKGL-OH
5. H-NLWAARNIARHLAQVGDSMDRSFKGL-OH
6. H-NLWAAQRYGRELRRMSDEFEGSFKGL-OH

A:
["3030 nM", "410 nM", "17500 nM", "650 nM", "1560 nM", "300 nM"]

Give IC50 for all substances that follow.
1. H-KKLSECLKRIGDELDS-OH
2. H-QDASTKKLSECLKRIGDELDSNMELQ-OH

A:
1: 29100 nM; 2: 2880 nM
